# test-protocol: Cytotoxicity against human A549-ACE2 cells assessed as cell viability at 0.1 uM incubated for 48 hrs by CellTiter-Glo2 assay relative to control
# Assay type: toxicity, cell-based
# condition-set: a549-ace2, 48 h
quantity: Activity (%)
Field: numeric (%). Do not append units.

Some molecules with known Activity results, for comparison:
INSERT INTO results (structure_smiles_string, quantity, unit_descriptor, observed_measurement) VALUES
  ('CN(CCO)c1ccc(Nc2cc(NC3CC3)n3ncc(C#N)c3n2)cc1-n1cnnc1', 'Activity', '%', 95),
  ('N#Cc1cnn2c(NC3CC3)cc(Nc3cccc(-c4cnn[nH]4)c3)nc12', 'Activity', '%', 100),
  ('N#Cc1cnn2c(NC3CC3)cc(Nc3ccnc(-n4cnnc4)c3)nc12', 'Activity', '%', 99);

Noted for COCCNc1ccc(Nc2cc(NC3CC3)n3ncc(C#N)c3n2)cc1-n1cnnc1 : its Activity reads 99

Noted for N#Cc1cnn2c(NC3CC3)cc(Nc3ccc(F)c(-n4cnnc4)c3)nc12 : its Activity reads 99

Noted for C[C@H](N)CN(C)c1ccc(Nc2cc(NC3CC3)n3ncc(C#N)c3n2)cc1-n1cnnc1 : its Activity reads 93

Noted for CCN(CC)CCN(C)c1ccc(Nc2cc(NC3CC3)n3ncc(C#N)c3n2)cc1-n1cnnc1 : its Activity reads 98

Noted for N#Cc1cnn2c(NC3CC3)cc(Nc3cccc(-n4cnnc4)c3)nc12 : its Activity reads 100

Noted for N#Cc1cnn2c(NC3CC3)cc(Nc3cc(-n4cnnc4)ccc3F)nc12 : its Activity reads 86

Noted for CN(CCN)c1ccc(Nc2cc(NC3CC3)n3ncc(C#N)c3n2)cc1-n1cnnc1 : its Activity reads 99

Noted for C[C@@H](N)CN(C)c1ccc(Nc2cc(NC3CC3)n3ncc(C#N)c3n2)cc1-n1cnnc1 : its Activity reads 95

Sourced from ChEMBL document CHEMBL5500423
